Values compiled from patent US20210330611A1.

# Tested on: LPS-induced microglia activation
# Protocol details: Image-based assay of LPS-induced microglia activation (HTS and dose response)
# Type: cell-based, rat
# Condition: primary microglia HTS, 10 μM, LPS-stimulated, cell size >800 μm^2 as marker of activation
Where a name gives a salt, the structure may show the parent alone.
Let's look at some compounds and their measured LPS % inhibition.
Provide the measurement as a number trailed by its unit.

- Compound: "CC(=O)O[C@H]1C(=O)[C@@]2(C)[C@H]([C@H](OC(=O)c3ccccc3)[C@]3(O)C[C@H](OC(=O)[C@H](O)[C@@H](NC(=O)c4ccccc4)c4ccccc4)C(C)=C1C3(C)C)[C@]1(OC(C)=O)CO[C@@H]1C[C@@H]2O"
  Target desc: "LPS-induced microglia activation"
  LPS % inhibition: "19%"

Suppose we examine the compound CN(C/C=C/C#CC(C)(C)C)Cc1cccc2ccccc12 [Terbinafine, Terbinafine Hydrochloride] ; what LPS % inhibition value has been reported?
6%

Suppose we examine the compound "CCCc1nc(C)c2c(=O)[nH]c(-c3cc(S(=O)(=O)N4CCN(CC)CC4)ccc3OCC)nn12" ; what LPS % inhibition value has been reported?
13%

Suppose we examine the compound O=C1Cc2cc(CCN3CCN(c4nsc5ccccc45)CC3)c(Cl)cc2N1 [Ziprasidone Mesylate, Ziprasidone] ; what LPS % inhibition value has been reported?
35%

Suppose we examine the compound "O=C1C(O)=C(O)C(=O)C(O)=C1O" ; what LPS % inhibition value has been reported?
15%

Suppose we examine the compound "CC1=C(CC(=O)O)c2cc(F)ccc2/C1=C\c1ccc(S(C)(=O)=O)cc1" ; what LPS % inhibition value has been reported?
3%

Suppose we examine the compound CC(C)(C)NC[C@H](O)COc1nsnc1N1CCOCC1 [Timolol Maleate] ; what LPS % inhibition value has been reported?
19%

Suppose we examine the compound CCN1CCCC1CNC(=O)c1cc(S(N)(=O)=O)ccc1OC (centres unmarked) [Sulpiride] ; what LPS % inhibition value has been reported?
7%

----------
# System: primary rat microglia
# Protocol details: Cell toxicity (dead cells, size <150 μm2) in coated fibrin (cFib) assay;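 also: share of dead cells sized under 150 µm2 at 10 µM in fibrin-stimulated microglia HTS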
# Condition: primary microglia HTS, fibrin stimulation; decreased size (<150 μm^2) as marker of toxicity
Readout label: Fibrin % cell toxicity

- Compound: "CCCc1nc(C(C)(C)O)c(C(=O)OCc2oc(=O)oc2C)n1Cc1ccc(-c2ccccc2-c2nnn[nH]2)cc1"
  Readout label: "Fibrin % cell toxicity"
  Result: "1%"
- Compound: "COC(=O)Nc1nc2ccc([S+]([O-])c3ccccc3)cc2[nH]1 (centres unmarked)"
  Readout label: "Fibrin % cell toxicity"
  Result: "0%"
- Compound: "CN1C(=O)CC(C)(c2ccccc2)C1=O (centres unmarked) [Methsuximide]"
  Readout label: "Fibrin % cell toxicity"
  Result: "0%"
- Compound: "COc1ccc(Cc2nccc3cc(OC)c(OC)cc23)cc1OC"
  Readout label: "Fibrin % cell toxicity"
  Result: "0%"
- Compound: "NC(=O)N/N=C/c1ccc([N+](=O)[O-])o1"
  Readout label: "Fibrin % cell toxicity"
  Result: "0%"

Suppose we examine the compound Nc1ccc(S(=O)(=O)Nc2cnc3ccccc3n2)cc1 [Sulfaquinoxaline sodium, reference compound] ; what Fibrin % cell toxicity value has been reported?
3%

Suppose we examine the compound "Cc1nc2ccccc2n1Cc1ccc(Cl)cc1" ; what Fibrin % cell toxicity value has been reported?
1%

Suppose we examine the compound "CCOc1ccccc1OCCN[C@H](C)Cc1ccc(OC)c(S(N)(=O)=O)c1" ; what Fibrin % cell toxicity value has been reported?
1%

Suppose we examine the compound "O=[N+]([O-])C(Br)(CO)CO" ; what Fibrin % cell toxicity value has been reported?
2%
